Test system: Hek293T
Assay: Primary qHTS to identify gynecologic anti-cancer compounds using libraries of approved drugs and bioactive compounds (AID 1345084); further: on the % scale 0 is the no-effect control and ±100 the full control effect; nearly all actives have a fitted effect of over 55% in size
Conditions: Gynecologic cancer cell panel viability, ATPlite luminescence, 48 h, control line for the selectivity index; series mostly up to 57.5 µM
Results filed as inconclusive are left out. Calls of active or inactive are those of the source. The call rests on the fitted dose curve; in most records, active means well fitted cell-killing curve with a large enough effect; inconclusive means small, poorly fitted or top-dose-only effect, or effect the other way; inactive means flat fitted curve, though single readings scatter.
QUANTITY MEASURED: activity change, negative = cytotoxicity

COMPOUND: OC1(c2ccc(Cl)cc2)c2ccccc2C2=NCCN21 (stereo unspecified)
RECORDED RESULT: inactive

COMPOUND: C=CC(C)(O)CC/C=C(\C)C(=O)O[C@H]1[C@H](O)[C@@H](CO)O[C@@H](OC(=O)[C@]23CCC(C)(C)CC2C2=CCC4[C@@]5(C)CC[C@H](O[C@@H]6O[C@H](CO[C@@H]7OC[C@H](O)[C@H](O)[C@H]7O[C@@H]7OC[C@@H](O)[C@H](O)[C@H]7O)[C@@H](O)[C@H](O)[C@H]6O)C(C)(C)C5CC[C@@]4(C)[C@]2(C)CC3)[C@@H]1OC1OC(C)C(O[C@@H]2OC[C@@H](O)[C@H](O[C@@H]3OC[C@@H](O)[C@H](O)[C@H]3O)[C@H]2O)C(O)C1O (stereo partly specified)
RECORDED RESULT: 2.18% [at 6.55 µM] (inactive)

COMPOUND: Cc1cn(C[C@H](N)C(=O)O)c(=O)n(Cc2cc(-c3ccccc3)sc2C(=O)O)c1=O
RECORDED RESULT: inactive

COMPOUND: C/C=C(\C)C(=O)OC1CC2C(C)(C)OC(=O)CC(OC(C)=O)C2(C)C2CC(OC(=O)C(C)C)C3(C)C(c4ccoc4)CC4OC43C12C (stereo unspecified)
RECORDED RESULT: inactive

COMPOUND: COc1cc(CCNCc2ccccc2O)c(OC)cc1C#N
RECORDED RESULT: inactive

COMPOUND: COC1CC(O[C@H]2CC[C@@]3(C)C(=CCC4C3C(O)[C@@H](O)[C@]3(C)[C@@H](C(C)=O)CC[C@]43O)C2)OC(C)C1OC1CC(OC)C(OC2OC(C)C(O)C(O)C2O)C(C)O1 (stereo partly specified)
RECORDED RESULT: -2.86% [at 11.6 µM] (inactive)

* * *

Target: Muscarinic acetylcholine receptor M1 (Rattus norvegicus)
Assay: qHTS Assay for Antagonists of Acetylcholine Muscarinic M1 Receptor: Kinetic Measurement of Intracellular Calcium Response (AID 943); further: nearly all actives have a fitted effect of over 75% in size
Conditions: M1-expressing cells, kinetic intracellular calcium fluorescence; series mostly up to 35.3 µM
Inconclusive results are not listed. The source made the active and inactive calls. The call rests on the fitted dose curve; in most records, active means well fitted inhibition curve with a large enough effect; inconclusive means small, poorly fitted or top-dose-only effect; inactive means no such curve, though single readings can be large or run the other way.
Outcomes: class 1 (active), class 0 (inactive)

SMILES INPUT: COc1ccc2c(c1)/C(=C/c1cnc[nH]1)C(=O)N2
SYSTEM TESTED: Muscarinic acetylcholine receptor M1 (Rattus norvegicus)
LABEL VALUE: class 0
//
SMILES INPUT: C[C@@H]1[C@@H]2Cc3ccc(O)cc3[C@@]1(C)CCN2CC1CC1
SYSTEM TESTED: Muscarinic acetylcholine receptor M1 (Rattus norvegicus)
LABEL VALUE: class 1
//
SMILES INPUT: CCCN(CCC)C1Cc2cc(OC)c(OC)cc2C1
SYSTEM TESTED: Muscarinic acetylcholine receptor M1 (Rattus norvegicus)
LABEL VALUE: class 1
//
SMILES INPUT: Clc1cc(I)cc(Cl)c1NC1=NCCN1
SYSTEM TESTED: Muscarinic acetylcholine receptor M1 (Rattus norvegicus)
LABEL VALUE: class 1
//
SMILES INPUT: OCc1cnc[nH]1
SYSTEM TESTED: Muscarinic acetylcholine receptor M1 (Rattus norvegicus)
LABEL VALUE: class 0
//
SMILES INPUT: COc1ccc2[nH]c3c(c2c1)CCNC3
SYSTEM TESTED: Muscarinic acetylcholine receptor M1 (Rattus norvegicus)
LABEL VALUE: class 0
//
SMILES INPUT: NC(=O)c1cc(N2CC2)c([N+](=O)[O-])cc1[N+](=O)[O-]
SYSTEM TESTED: Muscarinic acetylcholine receptor M1 (Rattus norvegicus)
LABEL VALUE: class 0
//
SMILES INPUT: Cc1[nH]c2ccc(O)cc2c1CCN
SYSTEM TESTED: Muscarinic acetylcholine receptor M1 (Rattus norvegicus)
LABEL VALUE: class 0
//
SMILES INPUT: CCCN(CCC)[C@H]1CCc2c(F)ccc(O)c2C1
SYSTEM TESTED: Muscarinic acetylcholine receptor M1 (Rattus norvegicus)
LABEL VALUE: class 1
//
SMILES INPUT: NC(=O)CI
SYSTEM TESTED: Muscarinic acetylcholine receptor M1 (Rattus norvegicus)
LABEL VALUE: class 0
//
SMILES INPUT: CNC(=O)OCC[N+](C)(C)C
SYSTEM TESTED: Muscarinic acetylcholine receptor M1 (Rattus norvegicus)
LABEL VALUE: class 0
//
SMILES INPUT: O=c1c2ccccc2[se]n1-c1ccccc1
SYSTEM TESTED: Muscarinic acetylcholine receptor M1 (Rattus norvegicus)
LABEL VALUE: class 0
//
SMILES INPUT: O=[N+]([O-])c1cc(O)c(O)c([N+](=O)[O-])c1
SYSTEM TESTED: Muscarinic acetylcholine receptor M1 (Rattus norvegicus)
LABEL VALUE: class 0
//
SMILES INPUT: CP(=O)(O)C1=CCNCC1
SYSTEM TESTED: Muscarinic acetylcholine receptor M1 (Rattus norvegicus)
LABEL VALUE: class 0
//
SMILES INPUT: NNC(=O)c1ccc(O)cc1
SYSTEM TESTED: Muscarinic acetylcholine receptor M1 (Rattus norvegicus)
LABEL VALUE: class 0
